- targetOrSystem: T1, Sulfotyrosine CCR2b biotin peptide (human)
- T1 construct: also called CCR2b peptide
- T1 peptide: TTFFD[sY]D[sY]GAPSHGGK(Biotin)
- assayDetails: ELISA, 50 nM mAb
Non-standard residues stand in square brackets, D forms with d. No end group written: not given here. *: point of attachment. Biotin = O=C1N[C@H]2[C@H](CS[C@H]2CCCCC(=O)*)N1; sY = N[C@@H](Cc1ccc(OS(=O)(=O)O)cc1)C(=O)O
Items are presented alongside their recorded binding normalized to PSGL-1.

The recorded binding normalized to PSGL-1 for entry 05A07 (antibody, IgG4, V domains shown) VH: QVQLVQSGSEVKRPGASVKVSCKTSGYTFSNYGIAWVRQAPGQGLEWVGWVSAYNGKTGASQKLQGRVTMTTDRSTTTAYLELRSLQSDDTAVYYCARGVKGGLTGYARDYWGQGTLVIVSS VL: DIVLTQSPRSLPVTLGQPASISCRSSQSLVNRAGDTYLNWFQQRPGQSPRRLIYKVSNRDSGVPDRFSGSGSGTDFTLKISRVEAEDVGVYYCMQGTQWPYTFGQGTKLEIK equals 1.09

The recorded binding normalized to PSGL-1 for entry 01A11 (antibody, IgG4, V domains shown) VH: EVKLLESGGGLVQPGGSLRLSCATSGFSFSDYWMSWVRQAPGKGLEWVASIKKDGSEKYYVDSVKGRFTISRDNAKNSLYVQMNSLRAEDTAIYYCVVFGAWGPGTLVTVSS VL: DIVMTQTPLSLPVTLGQPASISCRSGRSLVYSDGNTYLNWFQQRPGQSPRRLIYKVSNRDSGVPDRFSGGGSGTDFTLKISRVEAEDVAIYYCMQGTHWPPTFGQGTKLEIK equals 0.63
